System: Staphylococcus aureus
Assay: Antimicrobial activity against Staphylococcus aureus ATCC 6538 by agar dilution method
Type: functional
Would you kindly list MIC for each of these compounds?

COMPOUND: CCn1cc(C(=O)O)c(=O)c2cc(F)c(N3CCCCC3)cc21
MIC: < 0.125 µg/mL

# batch: return MIC for each of the 2 compounds below
1. CCn1cc(C(=O)O)c(=O)c2cc(F)c(N3CCCC(C)C3)cc21 (stereo not drawn)
2. CCn1cc(C(=O)O)c(=O)c2cc(F)c(N3CCCC3)c(Cl)c21

Completion:
1. < 0.125 µg/mL
2. < 0.125 µg/mL

---

Tested on: Yersinia pseudotuberculosis
Experiment: Antimicrobial activity against Yersinia pseudotuberculosis ATCC 911 incubated for 18 to 24 hrs by microbroth dilution method
Assay type: functional
Would you kindly list MIC for each of these molecules?
Numbers only, in µg/mL.

STRUCTURE SMILES: CCn1cc(C(=O)O)c(=O)c2cc(F)c(N3CCN(Cn4nc(CN5CCN(c6ccc([N+](=O)[O-])cc6)CC5)n(-c5ccc(F)cc5)c4=O)CC3)cc21
MIC, µg/mL: 0.12

STRUCTURE SMILES: CCn1cc(C(=O)O)c(=O)c2cc(F)c(N3CCN(Cn4nc(CN5CCN(c6ccc([N+](=O)[O-])cc6)CC5)n(-c5ccc(F)cc5)c4=S)CC3)cc21
MIC, µg/mL: 0.24

STRUCTURE SMILES: CCn1cc(C(=O)O)c(=O)c2cc(F)c(N3CCN(Cn4nc(CN5CCN(c6ccc([N+](=O)[O-])cc6)CC5)n(-c5ccccc5)c4=S)CC3)cc21
MIC, µg/mL: 0.06

Prompt: For the molecule CCn1c(CN2CCN(c3ccc([N+](=O)[O-])cc3)CC2)nn(CN2CCN(c3cc4c(cc3F)c(=O)c(C(=O)O)cn4CC)CC2)c1=S , give its reported MIC.
Completion: 0.25
